- Tested on: HEK293 cells
- procedure.details: Resazurin cytotoxicity assay, HEK293
- Assay type: cell-based, Human
assay.endpoint: CC50

Prompt: Requested read-out: CC50. Entry: Cn1c([N+](=O)[O-])cnc1C(=O)NCc1ccc(OC(F)(F)F)cc1 [Compound 8b]
Completion: > 100 µM

---
Prompt: Would you mind telling me what CC50 value was observed for Cn1c([N+](=O)[O-])cnc1C(=O)NCc1cccc(OC(F)(F)F)c1 [Compound 8c] ?
Completion: > 100 µM

###

- Tested on: T. vaginalis F1623
- procedure.details: ATP-bioluminescence growth/survival EC50 assay, T. vaginalis
- Type: cell-based, Trichomonas vaginalis
- condition.context: Trichomonas vaginalis; MtzS; minimum n = 3; read-out: EC50 T. vaginalis F1623
assay.endpoint: EC50 (nM)
Numbers only, in nM.

Prompt: // lookup EC50 for Cc1ncc([N+](=O)[O-])n1CCO [Compound 1, Metronidazole, reference compound]
Completion: 800

###

I'd be grateful if you could share measured CC50 at 24 h for these entries.
- procedure.details: Resazurin cytotoxicity assay, HEK293
- Format: cell-based, Human
- condition.context: human, HEK293 cells, 24 h, highest concentration 100 μM; n = 3; read-out: CC50 HEK 293

Items follow; give CC50 at 24 h for each.
1. O=C(NC1CC1)c1ncc([N+](=O)[O-])[nH]1 [Compound 12j]
2. O=C(NC1CCCCC1)c1ncc([N+](=O)[O-])[nH]1 [Compound 12k]
3. O=C(NCc1ccccn1)c1ncc([N+](=O)[O-])[nH]1 [Compound 12f]
4. Cn1c([N+](=O)[O-])cnc1C(=O)NCc1ccccn1 [Compound 8f]

Completion:
1: > 100 µM; 2: > 100 µM; 3: > 100 µM; 4: > 100 µM

Need CC50 at 24 h for each of these molecules.
1. Cc1ccc(CCNC(=O)c2ncc([N+](=O)[O-])[nH]2)cc1 [Compound 12e]
2. O=C(NO)c1nc([N+](=O)[O-])cn1Cc1ccc(OC(F)(F)F)cc1 [Compound 14d]
3. CN(C)C(=O)c1ncc([N+](=O)[O-])n1C [Compound 8g]
4. CC(NC(=O)c1ncc([N+](=O)[O-])n1C)c1ccc(F)cc1 (centres unmarked) [Compound 8d]

Completion:
1. > 100 µM
2. 36 µM
3. > 100 µM
4. > 100 µM

###

- procedure.details: Resazurin cytotoxicity assay, HepG2
- Assay type: cell-based, Human
- condition.context: human, HepG2 cells, 24 h; read-out: pCC50 ± SE Hep G2 (converted)
- Description: Human HEK293 and HepG2 cells were seeded at 3000 and 5000 cells per well in 384-well plates, respectively. Cells were cultured in Dulbecco's modified Eagle's medium with 10% FBS for 24 h at 37 °C, 5% CO2. A dilution series of compounds was added, with the highest concentration of 100 μM. […] The fluorescence intensity was read using Polarstar Omega with excitation/emission 560/590 nm. Data were analysed with GraphPad Prism 6 software (La Jolla, California USA) to calculate CC50 values.
assay.endpoint: CC50 at 24 h (µM)
Give bare numbers, in µM.

Prompt: Item under review: O=C(NCc1ccc(OC(F)(F)F)cc1)c1ncc([N+](=O)[O-])[nH]1 [Compound 12b] . Reported CC50 at 24 h?
Completion: 93.3

###

Please provide measured pEC50 for the entries that follow.
- Tested on: E. histolytica HM1:IMSS
- procedure.details: ATP-bioluminescence growth/survival EC50 assay, E. histolytica
- Assay type: cell-based, Entamoeba histolytica
- condition.context: Entamoeba histolytica, read-out: EC50 E. histolytica HM1:IMSS
Give bare numbers, as −log10 of the molar value.

Solved entries:
Prompt: Item under review: CNC(=O)c1nc([N+](=O)[O-])cn1Cc1ccc(OC(F)(F)F)cc1 [Compound 14a] . Reported pEC50?
Completion: 4.52

Prompt: What about CN(C)C(=O)c1ncc([N+](=O)[O-])n1C ?
Completion: 4.85

Prompt: And O=C(NCc1ccc(OC(F)(F)F)cc1)c1ncc([N+](=O)[O-])[nH]1 [Compound 12b] ?
Completion: 5.35

Give pEC50 for each listed item.
1. O=C(c1ncc([N+](=O)[O-])[nH]1)N1CCCC1 [Compound 12i]
2. NNC(=O)c1nc([N+](=O)[O-])cn1Cc1ccc(OC(F)(F)F)cc1 [Compound 14e]
3. Cc1ccc(CCNC(=O)c2ncc([N+](=O)[O-])[nH]2)cc1 [Compound 12e]

Completion:
1: 5.37; 2: 4.35; 3: 5.68

###

- Test system: G. lamblia WB (MtzS)
- procedure.details: ATP-bioluminescence growth/survival EC50 assay, G. lamblia WB
- condition.context: average cytotoxicity against HEK293 and HepG2 / G. lamblia WB activity
assay.endpoint: S.I (CC50/EC50)

Could you report S.I (CC50/EC50) for every entry in the following list?
1. CNC(=O)c1ncc([N+](=O)[O-])[nH]1 [Compound 12m]
2. CCOC(=O)c1nc([N+](=O)[O-])cn1Cc1ccc(OC(F)(F)F)cc1 [Compound 14c]
3. Cn1c([N+](=O)[O-])cnc1C(=O)NCc1cccc(OC(F)(F)F)c1 [Compound 8c]
4. Cn1c([N+](=O)[O-])cnc1C(=O)NC1CCCCC1 [Compound 8k]
5. Cn1c([N+](=O)[O-])cnc1C(=O)NC1CC1 [Compound 8j]

Completion:
>10
>17
>32
>20
>29

Kindly give each listed record's S.I (CC50/EC50).
1. Cn1c([N+](=O)[O-])cnc1C(=O)NCc1ccccn1 [Compound 8f]
2. CC(NC(=O)c1ncc([N+](=O)[O-])[nH]1)c1ccc(F)cc1 (stereo not shown) [Compound 12d]
3. Cc1ccc(CCNC(=O)c2ncc([N+](=O)[O-])n2C)cc1 [Compound 8e]
4. CC(NC(=O)c1ncc([N+](=O)[O-])n1C)c1ccc(F)cc1 (stereo not shown) [Compound 8d]

Completion:
>63
>250
>36
>34

Prompt: Which S.I (CC50/EC50) is reported for this molecule? Cc1ccc(CCNC(=O)c2ncc([N+](=O)[O-])[nH]2)cc1 [Compound 12e]
Completion: >1000

###

- Test system: G. lamblia WB (MtzS)
- procedure.details: ATP-bioluminescence growth/survival EC50 assay, G. lamblia WB
- condition.context: average cytotoxicity against HEK293 and HepG2 / G. lamblia WB activity
- Description: Compounds were screened for antiparasitic activity using an ATP-bioluminescence based assay for cell growth and survival, [24]. […] Viable cell numbers were determined in triplicate using the CellTiter-Glo Luminescent Cell Viability Assay.
assay.endpoint: S.I (CC50/EC50)

Below: 5 compounds and their reported S.I (CC50/EC50).
Prompt: What value of S.I (CC50/EC50) has been recorded for this entry: CN(CCO)C(=O)c1ncc([N+](=O)[O-])[nH]1 [Compound 12o]
Completion: >4

Prompt: Next compound: Cn1c([N+](=O)[O-])cnc1C(=O)NCc1ccc(F)cc1 [Compound 8a]
Completion: >29

Prompt: # repeat for CN(C)C(=O)c1ncc([N+](=O)[O-])[nH]1 [Compound 12g]
Completion: >12

Prompt: Cool, now O=C(c1ncc([N+](=O)[O-])[nH]1)N1CCCC1 [Compound 12i]
Completion: >29

Prompt: Moving on to the next compound: Cn1c([N+](=O)[O-])cnc1C(=O)N1CCOCC1 [Compound 8h]
Completion: >63

Count: 8. Required value per item: S.I (CC50/EC50).
1. O=C(NCc1cccc(OC(F)(F)F)c1)c1ncc([N+](=O)[O-])[nH]1 [Compound 12c]
2. NNC(=O)c1nc([N+](=O)[O-])cn1Cc1ccc(OC(F)(F)F)cc1 [Compound 14e]
3. CN(C)C(=O)c1nc([N+](=O)[O-])cn1Cc1ccc(OC(F)(F)F)cc1 [Compound 14b]
4. O=C(NC1CCCCC1)c1ncc([N+](=O)[O-])[nH]1 [Compound 12k]
5. Cn1c([N+](=O)[O-])cnc1C(=O)N1CCCC1 [Compound 8i]
6. NC(=O)c1nc([N+](=O)[O-])cn1Cc1ccccn1 [Compound 13e]
7. CNC(=O)c1nc([N+](=O)[O-])cn1Cc1ccc(OC(F)(F)F)cc1 [Compound 14a]
8. O=C(NC1CC1)c1ncc([N+](=O)[O-])[nH]1 [Compound 12j]

Completion:
>500
>13
>37
>167
>34
>3.7
>29
>20

Prompt: For the compound O=C(c1ncc([N+](=O)[O-])[nH]1)N1CCOCC1 [Compound 12h] , what S.I (CC50/EC50) is on record?
Completion: >11

###

- System: E. histolytica HM1:IMSS
- procedure.details: ATP-bioluminescence growth/survival EC50 assay, E. histolytica
- Type: cell-based, Entamoeba histolytica
- condition.context: Entamoeba histolytica, read-out: EC50 E. histolytica HM1:IMSS
assay.endpoint: EC50

Worked cases, EC50 given:
Prompt: Please look up its EC50: CN(CCO)C(=O)c1ncc([N+](=O)[O-])[nH]1 [Compound 12o]
Completion: > 50 µM

Prompt: Another: NC(=O)c1nc([N+](=O)[O-])cn1Cc1ccccn1 [Compound 13e]
Completion: > 50 µM

List the reported EC50 of each compound below.
1. NC(=O)c1nc([N+](=O)[O-])cn1Cc1ccc(OC(F)(F)F)cc1 [Compound 13b]
2. Nc1c[nH]c(C(=O)NCc2ccc(F)cc2)n1 [Compound 20]

Completion:
["> 25 µM", "> 50 µM"]
